Listing of entries alongside the reported composite z-score.
target: Calmodulin-1 (Homo sapiens); experiment: CALM1 binders on microarrays, EGTA buffer, profiling panel, biochemical, small-molecule microarray, Cy5-labelled CALM1 (AID 1111); conditions: Cy5-CALM1 binding fluorescence, higher = more signal;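 note: labelled calmodulin applied in Tris saline Tween buffer holding calcium plus EGTA and DTT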
Enter the number alone.

compound	target.system	assay.value
O=C1c2ccccc2[C@@]2(Cc3ccccc3N(C3CC3)C2=O)[C@H](c2ccc(CO)cc2)N1C1CCCCC1	Calmodulin-1 (Homo sapiens)	0.0762
C=CCN1C(=O)[C@@]2(O[C@@H](CCO)[C@H]([Si](C)(C)c3ccc(OC)cc3)[C@H]2C)c2cc(N3C(=O)c4ccccc4Oc4ccccc43)ccc21	Calmodulin-1 (Homo sapiens)	1.4
CC(=O)NCCCC[C@@H]1NC(=O)[C@@H]2C[C@H](C(=O)O)[C@H](c3ccc(O)cc3)N2C1=O	Calmodulin-1 (Homo sapiens)	-0.329
C=C1C2CC3C(=C4C(CO[C@@H]4[C@H]4CCCN4S(=O)(=O)c4ccccc4[N+](=O)[O-])C4C(=O)N(C)C(=O)C34)CC2C(=O)N1C (some centres not stated)	Calmodulin-1 (Homo sapiens)	-0.0741
O=C(CCCCCCC(=O)Nc1ccccc1)N/N=C/c1ccccc1	Calmodulin-1 (Homo sapiens)	-0.507
CCOC(=O)C[C@H]1[C@H](OC(=O)c2ccccc2-c2ccccc2)[C@@H](NC(=O)c2ccc3ccccc3n2)c2cc(OCCCO)ccc2N1C(=O)c1ccc2ccccc2n1	Calmodulin-1 (Homo sapiens)	-0.0654

Kindly review the next compound as well.
Could you please provide reported composite z-score for COCCOC(=O)N1C(=O)[C@@]2(c3cc(C#CC4(O)CCCCCC4)ccc31)[C@H](C(N)=O)[C@H]1C(=O)O[C@H](c3ccccc3)[C@H](c3ccccc3)N1[C@@H]2c1ccccc1OCCO ? Thanks!
-0.0545

Origin of the recorded values: PubChem BioAssay
